Values from patent US7405309B2

protocol_description: in vivo
condition_parameters: Nude, mouse, iv
readout_label: MTD at 21 day

Please indicate MTD at 21 day recorded for "CC1(C)OC(=O)C=C/C1=C\I"
< 90 mg/kg
